# Assay details: Apparent permeability across apical to basolateral side in human Caco2 cells at 10 uM at pH 6.5
# Assay type: ADME, cell-based
# Test settings: Caco-2, pH 6.5
Assay endpoint: Papp A→B at 10 µM (×10⁻⁶ cm/s)

C[C@@H]1COCCN1c1cc(C2([S@](C)(=N)=O)CC2)nc(-c2cc[nH]c3nccc2-3)n1; 6.8
C[C@@H]1COCCN1c1cc(C2(S(C)(=O)=O)CC2)nc(-c2cncc3[nH]ccc23)n1; 8

* * *

# Assay details: Volume of distribution at steady state in Han Wistar rat at 8.55 umol/kg, iv or 20.3 umol/kg, po
# Type: ADME, organism-based
# Test settings: in vivo, read-out: Vdss
Assay endpoint: Vd (L/kg)
Response body: numeric value in L/kg, unit text excluded.

stdin: Consider the compound shown here: C[C@@H]1COCCN1c1cc(C2([S@](C)(=N)=O)CC2)nc(-c2cc[nH]c3nccc2-3)n1 What is its recorded Vd?
stdout: 3.1

* * *

# Assay details: Plasma concentration in Swiss nu/nu mouse xenografted with human LoVo cells at 25 mg/kg, po bid after 8 hrs
# Format: ADME, organism-based
Assay endpoint: concentration at 8 h (nM)

(P) CNc1nc2ccccc2n1-c1nc(N2CCOC[C@H]2C)cc(C2(S(C)(=O)=O)CC2)n1
(Q) C[C@@H]1COCCN1c1cc(C2(S(C)(=O)=O)CC2)nc(-c2cccc3[nH]ccc23)n1
(R) C[C@@H]1COCCN1c1cc(C2([S@](C)(=N)=O)CC2)nc(-c2cc[nH]c3nccc2-3)n1
stdin: Put these in order: smallest concentration at 8 h first, largest last. Write the labels in rank order as requested.
stdout: R, Q, P
(R: 740 nM, Q: 1800 nM, P: 8300 nM)

* * *

# Assay details: Intrinsic clearance in human hepatocytes assessed as per million cells at 1 uM
# Type: ADME, cell-based, Hepatocyte
# Test settings: read-out: CLH
Assay endpoint: hepatocyte CLint at 1 µM (µL/min/1e6 cells)
Response body: numeric value in µL/min/1e6 cells, unit text excluded.

stdin: Consider the compound shown here: C[C@@H]1COCCN1c1cc(C2([S@](C)(=N)=O)CC2)nc(-c2cc[nH]c3nccc2-3)n1 [CERALASERTIB] What is its recorded hepatocyte CLint at 1 µM?
stdout: 2

* * *

# Assay details: in vitro
# Test settings: rat, hepatocytes
Assay endpoint: hepatocyte CLint at 1 µM (µL/min/1e6 cells)

C[C@@H]1COCCN1c1cc(C2(S(C)(=O)=O)CC2)nc(-c2cncc3[nH]ccc23)n1; 10

(1) CNc1nc2ccccc2n1-c1nc(N2CCOC[C@H]2C)cc(C2([S@](C)(=N)=O)CC2)n1
(2) CNc1nc2ccccc2n1-c1nc(N2CCOC[C@H]2C)cc(C2(S(C)(=O)=O)CC2)n1
stdin: Of the two listed items, which has the higher hepatocyte CLint at 1 µM? First: 1 Second: 2 Answer = label.
stdout: 2

* * *

# Assay details: Apparent permeability across apical to basolateral side in human Caco2 cells at 10 uM at pH 7.4
# Format: ADME, cell-based
# Test settings: Caco-2, pH 7.4
Assay endpoint: Papp A→B at 10 µM (×10⁻⁶ cm/s)

C[C@@H]1COCCN1c1cc(C2(S(C)(=O)=O)CC2)nc(-c2cccc3[nH]ccc23)n1; 37
CNc1nc2ccccc2n1-c1nc(N2CCOC[C@H]2C)cc(C2(S(C)(=O)=O)CC2)n1; 53

(1) C[C@@H]1COCCN1c1cc(C2([S@](C)(=N)=O)CC2)nc(-c2cc[nH]c3nccc2-3)n1
(2) CNc1nc2ccccc2n1-c1nc(N2CCOC[C@H]2C)cc(C2([S@](C)(=N)=O)CC2)n1
stdin: Of the two listed items, which has the higher Papp A→B at 10 µM? First: 1 Second: 2 Answer = label.
stdout: 1

* * *

# Assay details: Plasma concentration in Swiss nu/nu mouse xenografted with human LoVo cells at 75 mg/kg, po qd after 8 hrs
# Format: ADME, organism-based
Assay endpoint: concentration at 8 h (nM)
Response body: numeric value in nM, unit text excluded.

stdin: Consider the compound shown here: C[C@@H]1COCCN1c1cc(C2([S@](C)(=N)=O)CC2)nc(-c2cc[nH]c3nccc2-3)n1 [CERALASERTIB] What is its recorded concentration at 8 h?
stdout: 2600

* * *

# Assay details: Elimination half life in human
# Type: ADME, organism-based
# Test settings: in vivo, read-out: beta t1/2 (converted)
Assay endpoint: half-life (h)
Response body: numeric value in h, unit text excluded.

stdin: Consider the compound shown here: C[C@@H]1COCCN1c1cc(C2([S@](C)(=N)=O)CC2)nc(-c2cc[nH]c3nccc2-3)n1 What is its recorded half-life?
stdout: 11

* * *

# Assay details: Oral bioavailability in Han Wistar rat at 20.3 umol/kg
# Assay type: ADME, organism-based
# Test settings: in vivo
Assay endpoint: bioavailability (%)
Response body: numeric value in %, unit text excluded.

stdin: Consider the compound shown here: C[C@@H]1COCCN1c1cc(C2([S@](C)(=N)=O)CC2)nc(-c2cc[nH]c3nccc2-3)n1 [CERALASERTIB] What is its recorded bioavailability?
stdout: 67

* * *

# Assay details: physchem
# Test settings: octanol/phosphate buffer, pH 7.4
Assay endpoint: logD at 3 h, 10 µM

(a) CNC(=O)c1cc(-c2nc(N3CCOCC3)cc(C3(S(C)(=O)=O)CC3)n2)c2cc[nH]c2c1
(b) CNc1nc2ccccc2n1-c1nc(N2CCOC[C@H]2C)cc(C2(S(C)(=O)=O)CC2)n1
stdin: Of the two listed items, which has the higher logD at 3 h, 10 µM? First: a Second: b Answer = label.
stdout: b

(I) C[C@@H]1COCCN1c1cc(C2(S(C)(=N)=O)CC2)nc(-c2cncc3[nH]ccc23)n1 (stereo partly drawn)
(II) C[C@H]1COCCN1c1cc(C2(S(C)(=O)=O)CC2)nc(-c2cncc3[nH]ccc23)n1
stdin: Smaller logD at 3 h, 10 µM value, I vs II ? Answer = label.
stdout: I
(I: 1.4, II: 2.2)

* * *

# Assay details: Oral bioavailability in Beagle dog at […]
# Assay type: ADME, organism-based, Canis lupus familiaris
# Test settings: in vivo
Assay endpoint: bioavailability (%)
Response body: numeric value in %, unit text excluded.

stdin: Consider the compound shown here: C[C@@H]1COCCN1c1cc(C2([S@](C)(=N)=O)CC2)nc(-c2cc[nH]c3nccc2-3)n1 [CERALASERTIB] What is its recorded bioavailability?
stdout: 100

* * *

# Assay details: Plasma concentration in Swiss nu/nu mouse xenografted with human LoVo cells at 12.5 mg/kg, po bid after 8 hrs
# Assay type: ADME, organism-based
Assay endpoint: concentration at 8 h (nM)
Response body: numeric value in nM, unit text excluded.

stdin: Consider the compound shown here: C[C@@H]1COCCN1c1cc(C2(S(C)(=O)=O)CC2)nc(-c2cncc3[nH]ccc23)n1 What is its recorded concentration at 8 h?
stdout: 220

* * *

# Assay details: Plasma concentration in Swiss nu/nu mouse xenografted with human LoVo cells at 25 mg/kg, po qd after 8 hrs
# Format: ADME, organism-based
Assay endpoint: concentration at 8 h (nM)
Response body: numeric value in nM, unit text excluded.

stdin: Consider the compound shown here: C[C@@H]1COCCN1c1cc(C2(S(C)(=O)=O)CC2)nc(-c2cncc3[nH]ccc23)n1 What is its recorded concentration at 8 h?
stdout: 780

* * *

# Assay details: physchem
# Test settings: octanol/phosphate buffer, pH 7.4
Assay endpoint: logD at 3 h, 10 µM

C[C@@H]1COCCN1c1cc(C2([S@](C)(=N)=O)CC2)nc(-c2cc[nH]c3nccc2-3)n1; 1.9
C[C@@H]1COCCN1c1cc(C2(S(C)(=O)=O)CC2)nc(-c2cncc3[nH]ccc23)n1; 2.1
CS(=O)(=O)C1(c2cc(N3CCOCC3)nc(-c3cccc4[nH]ccc34)n2)CC1; 2.3
C[C@@H]1COCCN1c1cc(C2([S@+](C)[O-])CC2)nc(-c2ccnc3[nH]ccc23)n1; 2.5
C[C@@H]1COCCN1c1cc(C2(S(C)(=O)=O)CC2)nc(-c2cccc3[nH]ccc23)n1; 2.5
CNc1nc2ccccc2n1-c1nc(N2CCOC[C@H]2C)cc(C2([S@](C)(=N)=O)CC2)n1; 2.1
CS(=O)(=O)C1(c2cc(C3=CCOCC3)nc(-c3cccc4[nH]ccc34)n2)CC1; 2.9
C[C@@H]1COCCN1c1cc(C2(S(C)(=O)=O)CC2)nc(-c2ccnc3[nH]ccc23)n1; 2.6
CS(=O)(=O)C1(c2cc(N3CC4CCC(C3)O4)nc(-c3cncc4[nH]ccc34)n2)CC1; 2.2
CS(=O)(=O)C1(c2cc(N3CCOCC3)nc(-c3ccnc4[nH]ccc34)n2)CC1; 2.2
C[C@@H]1COCCN1c1cc(C2([S@@](C)(=N)=O)CC2)nc(-c2ccnc3[nH]ccc23)n1; 1.8
CNc1nc2ccccc2n1-c1nc(N2CCOC[C@H]2C)cc(C2([S@@](C)(=N)=O)CC2)n1; 2.1
CS(=O)(=O)C1(c2cc(N3CCOCC3)nc(-n3c(N)nc4ccccc43)n2)CC1; 2.2
C[C@@H]1COCCN1c1cc(C2(S(C)(=O)=O)CC2)nc(-n2c(N)nc3ccccc32)n1; 2.5
CC(=O)Nc1nc2ccccc2n1-c1nc(N2CCOC[C@H]2C)cc(C2(S(C)(=O)=O)CC2)n1; 1.8
CS(=O)(=O)C1(c2cc(N3C4CCC3COC4)nc(-c3cncc4[nH]ccc34)n2)CC1; 2.1
CS(=O)(=O)C1(c2cc(N3CCOCC3)nc(-c3cncc4[nH]ccc34)n2)CC1; 1.8
CS(=O)(=O)C1(c2cc(N3CCOCC3)nc(-c3cccc4[nH]cnc34)n2)CC1; 2.2
C[C@@H]1COCCN1c1cc(C2([S@@+](C)[O-])CC2)nc(-c2ccnc3[nH]ccc23)n1; 2.5
